# System: BEN
# assayRemarks: relative viability (nuclei count vs DMSO), 5 days (fraction); higher = more cells survive
# conditions: first compound 2.53 µM
attributeMeasured: relative viability
Lab note: record just the number, no unit beside it.

Solved cases (3 shown):
molecule | relative viability
Oc1nc(-c2ccc(C(F)(F)F)cc2)nc2c1CSCC2 [XAV939] + N=C(N)NC(=N)NCCc1ccccc1 [Phenformin] (partner 250 µM) | 0.243
Oc1nc(-c2ccc(C(F)(F)F)cc2)nc2c1CSCC2 [XAV939] + CC(=O)c1c(C)c2cnc(Nc3ccc(N4CCNCC4)cn3)nc2n(C2CCCC2)c1=O [Palbociclib] (partner 0.5 µM) | 0.45
C=C1C(=O)O[C@@H](CCCCCCCC)[C@@H]1C(=O)O [C-75] + CC(=O)c1c(C)c2cnc(Nc3ccc(N4CCNCC4)cn3)nc2n(C2CCCC2)c1=O [Palbociclib] (partner 0.5 µM) | 0.375

GET /value?item= Oc1nc(-c2ccc(C(F)(F)F)cc2)nc2c1CSCC2 [XAV939] + O=C(CCCCCCC(=O)Nc1ccccc1)NO [Vorinostat] (partner 1 µM) &field=relative viability returns 0.418

Per the record, C=C1C(=O)O[C@@H](CCCCCCCC)[C@@H]1C(=O)O [C-75] + O=C(CCCCCCC(=O)Nc1ccccc1)NO [Vorinostat] (partner 1 µM) has relative viability of 0.647

###

# System: NCI-H1666
# assayRemarks: relative viability (nuclei count vs DMSO), 5 days (fraction); higher = more cells survive
# conditions: first compound 1 µM
A collection of compounds and their measured relative viability
API doc: respond with a numeric literal and nothing else, no unit.

Take a look at these entries with their results.
compound | relative viability
NC(=O)Nc1cc(-c2cccc(F)c2)sc1C(=O)N[C@H]1CCCNC1 [AZD7762] + COc1cccc2cc(-c3nc([C@H]4CC[C@H](C(=O)O)CC4)n4ncnc(N)c34)[nH]c12 [OSI-027] (partner 0.5 µM) | 0.771
NC(=O)Nc1cc(-c2cccc(F)c2)sc1C(=O)N[C@H]1CCCNC1 [AZD7762] + O=C(c1cc(Cc2n[nH]c(=O)c3ccccc23)ccc1F)N1CCN(C(=O)C2CC2)CC1 [Olaparib] (partner 8 µM) | 0.814
NC(=O)Nc1cc(-c2cccc(F)c2)sc1C(=O)N[C@H]1CCCNC1 [AZD7762] + CC(=O)c1c(C)c2cnc(Nc3ccc(N4CCNCC4)cn3)nc2n(C2CCCC2)c1=O [Palbociclib] (partner 0.5 µM) | 0.65
NC(=O)Nc1cc(-c2cccc(F)c2)sc1C(=O)N[C@H]1CCCNC1 [AZD7762] + N=C(N)NC(=N)NCCc1ccccc1 [Phenformin] (partner 250 µM) | 0.467

Please examine the following record next.
Query NC(=O)Nc1cc(-c2cccc(F)c2)sc1C(=O)N[C@H]1CCCNC1 [AZD7762] + COc1cc2c(Oc3ccc(NC(=O)C4(C(=O)Nc5ccc(F)cc5)CC4)cc3F)ccnc2cc1OCCCN1CCOCC1 [Foretinib] (partner 0.25 µM) on NCI-H1666; relative viability returned: 0.849

###

// relative viability lookup, one value per entry
# Test system: NCI-H1703
# assayRemarks: relative viability (nuclei count vs DMSO), 5 days (fraction); higher = more cells survive
# conditions: first compound 0.8 µM
A bare number is all that is needed in reply.

response.value for C=C1C(=O)O[C@@H](CCCCCCCC)[C@@H]1C(=O)O [C-75] + C[C@]1(O)C[C@@H](c2nc(-c3ccc4ccc(-c5ccccc5)nc4c3)c3c(N)nccn32)C1 [Linsitinib] (partner 1 µM) (field: relative viability) = 0.672

The reported relative viability of the molecule C=C1C(=O)O[C@@H](CCCCCCCC)[C@@H]1C(=O)O [C-75] + CC(C)C[C@H](NC(=O)[C@H](Cc1ccccc1)NC(=O)c1cnccn1)B(O)O [Bortezomib] (partner 0.002 µM) was 0.31

The molecule identified as Oc1nc(-c2ccc(C(F)(F)F)cc2)nc2c1CSCC2 [XAV939] + CC(C)C[C@H](NC(=O)[C@H](Cc1ccccc1)NC(=O)c1cnccn1)B(O)O [Bortezomib] (partner 0.002 µM) registered its relative viability at 0.293

###

# System: NCI-H2009
# assayRemarks: relative viability (nuclei count vs DMSO), 5 days (fraction); higher = more cells survive
# conditions: first compound 0.01 µM
Kindly apply the following: 1 if relative viability is less than 1, -1 in every other case.

Solved cases (3 shown):
compound | answerLabel
NC(=O)Nc1cc(-c2cccc(F)c2)sc1C(=O)N[C@H]1CCCNC1 [AZD7762] + O=C(CCCCCCC(=O)Nc1ccccc1)NO [Vorinostat] (partner 1 µM) | 1
NC(=O)Nc1cc(-c2cccc(F)c2)sc1C(=O)N[C@H]1CCCNC1 [AZD7762] + CS(=O)(=O)CCNCc1ccc(-c2ccc3ncnc(Nc4ccc(OCc5cccc(F)c5)c(Cl)c4)c3c2)o1 [Lapatinib] (partner 2 µM) | -1
NC(=O)Nc1cc(-c2cccc(F)c2)sc1C(=O)N[C@H]1CCCNC1 [AZD7762] + CCNC(=O)c1noc(-c2cc(C(C)C)c(O)cc2O)c1-c1ccc(CN2CCOCC2)cc1 [Luminespib] (partner 0.01 µM) | -1

## Input State whether 1 exceeds relative viability recorded for NC(=O)Nc1cc(-c2cccc(F)c2)sc1C(=O)N[C@H]1CCCNC1 [AZD7762] + Cc1nc(NC(=O)N2CCC[C@H]2C(N)=O)sc1-c1ccnc(C(C)(C)C(F)(F)F)c1 [Alpelisib] (partner 2 µM) .
## Output -1

## Input Does the reported relative viability of the following compound sit strictly below 1? NC(=O)Nc1cc(-c2cccc(F)c2)sc1C(=O)N[C@H]1CCCNC1 [AZD7762] + CC1(C)CCC(c2ccc(Cl)cc2)=C(CN2CCN(c3ccc(C(=O)NS(=O)(=O)c4ccc(N[C@H](CCN5CCOCC5)CSc5ccccc5)c(S(=O)(=O)C(F)(F)F)c4)cc3)CC2)C1 [Navitoclax] (partner 0.5 µM)
## Output -1

## Input Does NC(=O)Nc1cc(-c2cccc(F)c2)sc1C(=O)N[C@H]1CCCNC1 [AZD7762] + C[C@]1(O)C[C@@H](c2nc(-c3ccc4ccc(-c5ccccc5)nc4c3)c3c(N)nccn32)C1 [Linsitinib] (partner 1 µM) have relative viability strictly under 1?
## Output -1

## Input Confirm or reject: relative viability of NC(=O)Nc1cc(-c2cccc(F)c2)sc1C(=O)N[C@H]1CCCNC1 [AZD7762] + CS(=O)(=O)N1CCN(Cc2cc3nc(-c4cccc5[nH]ncc45)nc(N4CCOCC4)c3s2)CC1 [Pictilisib] (partner 1 µM) lies strictly below 1
## Output 1

###

# System: NCI-H3122
# assayRemarks: relative viability (nuclei count vs DMSO), 5 days (fraction); higher = more cells survive
# conditions: first compound 0.8 µM
# maps each entry to its relative viability
# respond with the number and nothing more

Lab book: relative viability of C=C1C(=O)O[C@@H](CCCCCCCC)[C@@H]1C(=O)O [C-75] + COc1cc2c(Oc3ccc(NC(=O)C4(C(=O)Nc5ccc(F)cc5)CC4)cc3F)ccnc2cc1OCCCN1CCOCC1 [Foretinib] (partner 0.25 µM) noted as 0.936

Form: molecule = Oc1nc(-c2ccc(C(F)(F)F)cc2)nc2c1CSCC2 [XAV939] + CS(=O)(=O)CCNCc1ccc(-c2ccc3ncnc(Nc4ccc(OCc5cccc(F)c5)c(Cl)c4)c3c2)o1 [Lapatinib] (partner 2 µM) ; relative viability = 1.01

The value of relative viability measured for the molecule Oc1nc(-c2ccc(C(F)(F)F)cc2)nc2c1CSCC2 [XAV939] + NC(=O)Nc1cc(-c2cccc(F)c2)sc1C(=O)N[C@H]1CCCNC1 [AZD7762] (partner 0.2 µM) turned out to be 0.9

###

# Tested on: EMC-BAC-2
# assayRemarks: relative viability (nuclei count vs DMSO), 5 days (fraction); higher = more cells survive
# conditions: first compound 0.08 µM
Below, each entry is listed alongside its reported relative viability.
Please give only the number in your answer, with no unit.

Entry Oc1nc(-c2ccc(C(F)(F)F)cc2)nc2c1CSCC2 [XAV939] + Nc1ncn([C@H]2C[C@H](O)[C@@H](CO)O2)c(=O)n1 [Decitabine] (partner 2 µM) , relative viability reported as 1.04

Summary for this compound, Oc1nc(-c2ccc(C(F)(F)F)cc2)nc2c1CSCC2 [XAV939] + O=C(CCCCCCC(=O)Nc1ccccc1)NO [Vorinostat] (partner 1 µM) : relative viability is 0.175

get_value(item= C=C1C(=O)O[C@@H](CCCCCCCC)[C@@H]1C(=O)O [C-75] + O=C(c1cc(Cc2n[nH]c(=O)c3ccccc23)ccc1F)N1CCN(C(=O)C2CC2)CC1 [Olaparib] (partner 8 µM) , readout=relative viability) returns 0.506

Entry C=C1C(=O)O[C@@H](CCCCCCCC)[C@@H]1C(=O)O [C-75] + Cc1cc(Nc2cc(N3CCN(C)CC3)nc(Sc3ccc(NC(=O)C4CC4)cc3)n2)n[nH]1 [Tozasertib] (partner 0.1 µM) , relative viability reported as 0.279

The measured relative viability associated with Oc1nc(-c2ccc(C(F)(F)F)cc2)nc2c1CSCC2 [XAV939] + Cc1nc(Nc2ncc(C(=O)Nc3c(C)cccc3Cl)s2)cc(N2CCN(CCO)CC2)n1 [Dasatinib] (partner 0.075 µM) reads 0.321
